target: Human immunodeficiency virus type 1 reverse transcriptase (Human immunodeficiency virus 1); assay: Inhibition of recombinant HIV1 reverse transcriptase
Experimental Readout: IC50 (µM)

Compound	Measured
Cc1cn(C2OC(CO[Si](C)(C)C(C)(C)C)C3(OS(=O)(=O)C=C3N)C2O[Si](C)(C)C(C)(C)C)c(=O)n(CCCNC(=O)[C@@H]2[C@@H](O)[C@@H](O)CN2C(=O)[C@@H](N)C(C)C)c1=O (some centres not stated)	4.8
Cc1cn(C2OC(CO[Si](C)(C)C(C)(C)C)C3(OS(=O)(=O)C=C3N)C2O[Si](C)(C)C(C)(C)C)c(=O)n(CCCNC(=O)[C@@H]2CCCN2C(=O)[C@@H](N)Cc2ccc(O)cc2)c1=O (some centres not stated)	8.1
Cc1cn(C2OC(CO[Si](C)(C)C(C)(C)C)C3(OS(=O)(=O)C=C3N)C2O[Si](C)(C)C(C)(C)C)c(=O)n(CCCNC(=O)[C@H](CC(C)C)NC(=O)[C@@H](N)C(C)C)c1=O (some centres not stated)	4.6
Cc1cn(C2OC(CO[Si](C)(C)C(C)(C)C)C3(OS(=O)(=O)C=C3N)C2O[Si](C)(C)C(C)(C)C)c(=O)n(CCCNC(=O)[C@@H]2C[C@@H](OCc3ccccc3)CN2C(=O)[C@@H](N)C(C)C)c1=O (some centres not stated)	28
Cc1cn(C2OC(CO[Si](C)(C)C(C)(C)C)C3(OS(=O)(=O)C=C3N)C2O[Si](C)(C)C(C)(C)C)c(=O)n(CCCNC(=O)[C@@H](N)C(C)C)c1=O (some centres not stated)	6.7
Cc1cn(C2OC(CO[Si](C)(C)C(C)(C)C)C3(OS(=O)(=O)C=C3N)C2O[Si](C)(C)C(C)(C)C)c(=O)n(CCCNC(=O)[C@@H]2C[C@@H](O)CN2C(=O)[C@@H](N)C(C)C)c1=O (some centres not stated)	16
Cc1cn(C2OC(CO[Si](C)(C)C(C)(C)C)C3(OS(=O)(=O)C=C3N)C2O[Si](C)(C)C(C)(C)C)c(=O)n(CCCNC(=O)[C@@H]2CCCN2C(=O)[C@@H](N)CC(N)=O)c1=O (some centres not stated)	4

Where these numbers come from: ChEMBL document CHEMBL1146037
